Cited source for all entries: patent US7999119B2

Assay: Pharmacokinetics following oral administration in the rat
Format: in vivo
Conditions: male, rat, plasma, po, 3 mg/kg, rat, 3 mg/kg p.o, individual male animals; read-out: Cmax
readout type: Cmax (ng/mL)

Query: Note Cmax for the compound shown: Cc1c(Cc2ccccc2S(=O)(=O)c2ccc(F)cc2)c2cc(F)ccc2n1CC(=O)O
Response: 4320

[a] Cc1c(Cc2ccccc2S(=O)(=O)c2ccc(Cl)cc2)c2cc(F)ccc2n1CC(=O)O
[b] Cc1c(Cc2ccccc2S(=O)(=O)c2ccccc2)c2cc(F)ccc2n1CC(=O)O
[c] Cc1c(Cc2ccc3ccccc3n2)c2cc(F)ccc2n1CC(=O)O [Compound A, reference compound]
Query: List by increasing Cmax. Note for the reader: the ranking is given by listing the labels in the order requested.
Response: c, a, b
(c: 1420 ng/mL, a: 2960 ng/mL, b: 4330 ng/mL)

====

System: PGD2 induced eosinophil shape change
Assay: Human whole blood eosinophil shape change assay
Type: cell-based
Settings: Homo sapiens, Eosinophil; read-out: IC50 in the whole blood eosinophil shape change assay
readout type: IC50 (nM)

[1] Cc1c(Cc2ccc(S(C)(=O)=O)cc2)c2cc(F)ccc2n1CC(=O)O [Compound B, reference compound]
[2] Cc1c(Cc2ccccc2S(=O)(=O)c2ccc(Cl)cc2)c2cc(F)ccc2n1CC(=O)O
Query: Returns the identifier with the smallest measured IC50 among 1 and 2 . Pick one and reply with its label.
Response: 2
(2: 2 nM, 1: 8 nM)

====

Experiment: Pharmacokinetics following oral administration in the rat
Assay type: in vivo
Conditions: male, rat, plasma, po, 3 mg/kg, rat, 3 mg/kg oral, 0.25 h, individual male animals; read-out: Concentration in Blood
readout type: concentration at 0.25 h (ng/mL)

Query: Recall and state the measured concentration at 0.25 h for Cc1c(Cc2ccccc2S(=O)(=O)c2ccccc2)c2cc(F)ccc2n1CC(=O)O .
Response: 1160

[a] Cc1c(Cc2ccc(S(C)(=O)=O)cc2)c2cc(F)ccc2n1CC(=O)O [Compound B, reference compound]
[b] Cc1c(Cc2ccccc2S(=O)(=O)c2ccc(Cl)cc2)c2cc(F)ccc2n1CC(=O)O
[c] Cc1c(Cc2ccccc2S(=O)(=O)c2ccc(F)cc2)c2cc(F)ccc2n1CC(=O)O
Query: # ascending order, key=concentration at 0.25 h To answer, arrange all of the labels according to the requested order.
Response: a, c, b
(a: 91.8 ng/mL, c: 836 ng/mL, b: 1570 ng/mL)

====

Assay: Pharmacokinetics following oral administration in the rat
Assay type: in vivo
Conditions: male, rat, plasma, po, 3 mg/kg, rat, 3 mg/kg p.o, individual male animals; read-out: AUCinf
readout type: AUC(0-inf) (ng·h/mL)

[P] Cc1c(Cc2ccccc2S(=O)(=O)c2ccccc2)c2cc(F)ccc2n1CC(=O)O
[Q] Cc1c(Cc2ccccc2S(=O)(=O)c2ccc(Cl)cc2)c2cc(F)ccc2n1CC(=O)O
[R] Cc1c(Cc2ccc3ccccc3n2)c2cc(F)ccc2n1CC(=O)O [Compound A, reference compound]
Query: Sort the entries above numerically by AUC(0-inf), high end first. Dear reader, please state the labels in the requested order.
Response: P, Q, R
(P: 23800 ng·h/mL, Q: 13200 ng·h/mL, R: 8570 ng·h/mL)

====

Assay: Pharmacokinetics following oral administration in the rat
Format: in vivo
Conditions: male, rat, plasma, po, 3 mg/kg, rat, 3 mg/kg oral, 24 h, mean; read-out: Concentration in Blood, Mean
readout type: concentration at 24 h (ng/mL)

Query: State its concentration at 24 h: Cc1c(Cc2ccccc2S(=O)(=O)c2ccccc2)c2cc(F)ccc2n1CC(=O)O
Response: 47.4

[I] Cc1c(Cc2ccc3ccccc3n2)c2cc(F)ccc2n1CC(=O)O [Compound A, reference compound]
[II] Cc1c(Cc2ccccc2S(=O)(=O)c2ccc(F)cc2)c2cc(F)ccc2n1CC(=O)O
[III] Cc1c(Cc2ccc(S(C)(=O)=O)cc2)c2cc(F)ccc2n1CC(=O)O [Compound B, reference compound]
Query: // smallest concentration at 24 h at index 0, largest at the end Put the labels in the requested order and list them out.
Response: III, II, I
(III: 0 ng/mL, II: 16.1 ng/mL, I: 43.7 ng/mL)

====

Assay: Pharmacokinetics following oral administration in the rat
Assay type: in vivo
Conditions: male, rat, plasma, po, 3 mg/kg, rat, 3 mg/kg oral, 0.5 h, individual male animals; read-out: Concentration in Blood
readout type: concentration at 0.5 h (µg/mL)

Below are worked cases with known answers.
Query: Quote concentration at 0.5 h reported for Cc1c(Cc2ccccc2S(=O)(=O)c2ccccc2)c2cc(F)ccc2n1CC(=O)O please.
Response: 2.68

Query: Output concentration at 0.5 h of Cc1c(Cc2ccccc2S(=O)(=O)c2ccc(Cl)cc2)c2cc(F)ccc2n1CC(=O)O
Response: 2.61

[1] Cc1c(Cc2ccc3ccccc3n2)c2cc(F)ccc2n1CC(=O)O [Compound A, reference compound]
[2] Cc1c(Cc2ccccc2S(=O)(=O)c2ccc(F)cc2)c2cc(F)ccc2n1CC(=O)O
[3] Cc1c(Cc2ccc(S(C)(=O)=O)cc2)c2cc(F)ccc2n1CC(=O)O [Compound B, reference compound]
Query: Rank the items in ascending order with respect to concentration at 0.5 h. Answer by naming the labels in the order asked.
Response: 3, 1, 2
(3: 0.121 µg/mL, 1: 0.426 µg/mL, 2: 2.06 µg/mL)

====

Experiment: Pharmacokinetics following oral administration in the rat
Format: in vivo
Details: male, rat, plasma, po, 3 mg/kg, rat, 3 mg/kg oral, 2 h, individual male animals; read-out: Concentration in Blood
readout type: concentration at 2 h (ng/mL)

Query: Name the recorded concentration at 2 h of the item Cc1c(Cc2ccccc2S(=O)(=O)c2ccccc2)c2cc(F)ccc2n1CC(=O)O [Compound 1] in your answer.
Response: 4330

[P] Cc1c(Cc2ccccc2S(=O)(=O)c2ccc(F)cc2)c2cc(F)ccc2n1CC(=O)O [Compound 3]
[Q] Cc1c(Cc2ccccc2S(=O)(=O)c2ccc(Cl)cc2)c2cc(F)ccc2n1CC(=O)O [Compound 2]
[R] Cc1c(Cc2ccc3ccccc3n2)c2cc(F)ccc2n1CC(=O)O [Compound A, reference compound]
Query: Hello, I need these entries ordered by concentration at 2 h, highest reading first. Thanks! Provide your answer as the labels ordered per the instruction.
Response: P, Q, R

====

Experiment: Pharmacokinetics following oral administration in the rat
Assay type: in vivo
Settings: male, rat, plasma, po, 3 mg/kg, rat, 3 mg/kg p.o, mean; read-out: T½, Mean (converted)
readout type: half-life (h)

[P] Cc1c(Cc2ccccc2S(=O)(=O)c2ccccc2)c2cc(F)ccc2n1CC(=O)O
[Q] Cc1c(Cc2ccc(S(C)(=O)=O)cc2)c2cc(F)ccc2n1CC(=O)O [Compound B, reference compound]
Query: Which one would you say has the larger half-life value: P , or Q ? Lab log: write the label of the selected item as the result.
Response: P

====

Experiment: Pharmacokinetics following oral administration in the rat
Type: in vivo
Conditions: male, rat, plasma, po, 3 mg/kg, rat, 3 mg/kg p.o, mean; read-out: Tmax, Mean
readout type: Tmax (h)

Example results:
Query: Item Cc1c(Cc2ccc3ccccc3n2)c2cc(F)ccc2n1CC(=O)O [Compound A, reference compound] : provide Tmax
Response: 2

Query: Fill in Tmax for record Cc1c(Cc2ccccc2S(=O)(=O)c2ccc(Cl)cc2)c2cc(F)ccc2n1CC(=O)O
Response: 1.3

Query: Quickly give me recorded Tmax for Cc1c(Cc2ccccc2S(=O)(=O)c2ccc(F)cc2)c2cc(F)ccc2n1CC(=O)O
Response: 2

[a] Cc1c(Cc2ccc(S(C)(=O)=O)cc2)c2cc(F)ccc2n1CC(=O)O [Compound B, reference compound]
[b] Cc1c(Cc2ccccc2S(=O)(=O)c2ccccc2)c2cc(F)ccc2n1CC(=O)O
Query: Pick one, a or b : lowest reported Tmax. Please indicate the selected item by its label.
Response: b

====

Experiment: Pharmacokinetics following oral administration in the rat
Assay type: in vivo
Settings: male, rat, plasma, po, 3 mg/kg, rat, 3 mg/kg oral, 0.5 h, mean; read-out: Concentration in Blood, Mean
Method: Investigation of Pharmacokinetics of Compounds of General Formula (I) Following Oral Administration in the Rat Rats were weighed on the day of dosing. The test material was prepared as a 0.3 mg/mL suspension in 1% carboxy-methyl-cellulose (CMC). Three groups of 3 rats were dosed as follows: […] The plasma samples were analysed for test material concentrations at BioDynamics using an LC-MS/MS method developed at BioDynamics.
readout type: concentration at 0.5 h (ng/mL)

Query: Retrieve concentration at 0.5 h measured for Cc1c(Cc2ccccc2S(=O)(=O)c2ccccc2)c2cc(F)ccc2n1CC(=O)O [Compound 1] and print it.
Response: 2910

Query: Supply reported concentration at 0.5 h belonging to this compound: Cc1c(Cc2ccccc2S(=O)(=O)c2ccc(Cl)cc2)c2cc(F)ccc2n1CC(=O)O [Compound 2]
Response: 2220

[A] Cc1c(Cc2ccc3ccccc3n2)c2cc(F)ccc2n1CC(=O)O [Compound A, reference compound]
[B] Cc1c(Cc2ccc(S(C)(=O)=O)cc2)c2cc(F)ccc2n1CC(=O)O [Compound B, reference compound]
[C] Cc1c(Cc2ccccc2S(=O)(=O)c2ccc(F)cc2)c2cc(F)ccc2n1CC(=O)O [Compound 3]
Query: Order the entries by their reported concentration at 0.5 h, beginning at the minimum. To answer, write out the labels according to the requested order.
Response: B, A, C
